molecular target: intracellular GCN2 (phosphorylation of the GCN2 substrate eIF2α) (Homo sapiens); experiment: GCN2 cellular inhibition assay (AlphaScreen SureFire P-eIF2α Ser51, borrelidin-treated U2OS cells); format: cell-based; conditions: compounds of Formula IV; biomarker assay, phosphorylated eIF2α Ser51 in borrelidin-treated U2OS cells
Sequence (Q9P2K8 whole entry): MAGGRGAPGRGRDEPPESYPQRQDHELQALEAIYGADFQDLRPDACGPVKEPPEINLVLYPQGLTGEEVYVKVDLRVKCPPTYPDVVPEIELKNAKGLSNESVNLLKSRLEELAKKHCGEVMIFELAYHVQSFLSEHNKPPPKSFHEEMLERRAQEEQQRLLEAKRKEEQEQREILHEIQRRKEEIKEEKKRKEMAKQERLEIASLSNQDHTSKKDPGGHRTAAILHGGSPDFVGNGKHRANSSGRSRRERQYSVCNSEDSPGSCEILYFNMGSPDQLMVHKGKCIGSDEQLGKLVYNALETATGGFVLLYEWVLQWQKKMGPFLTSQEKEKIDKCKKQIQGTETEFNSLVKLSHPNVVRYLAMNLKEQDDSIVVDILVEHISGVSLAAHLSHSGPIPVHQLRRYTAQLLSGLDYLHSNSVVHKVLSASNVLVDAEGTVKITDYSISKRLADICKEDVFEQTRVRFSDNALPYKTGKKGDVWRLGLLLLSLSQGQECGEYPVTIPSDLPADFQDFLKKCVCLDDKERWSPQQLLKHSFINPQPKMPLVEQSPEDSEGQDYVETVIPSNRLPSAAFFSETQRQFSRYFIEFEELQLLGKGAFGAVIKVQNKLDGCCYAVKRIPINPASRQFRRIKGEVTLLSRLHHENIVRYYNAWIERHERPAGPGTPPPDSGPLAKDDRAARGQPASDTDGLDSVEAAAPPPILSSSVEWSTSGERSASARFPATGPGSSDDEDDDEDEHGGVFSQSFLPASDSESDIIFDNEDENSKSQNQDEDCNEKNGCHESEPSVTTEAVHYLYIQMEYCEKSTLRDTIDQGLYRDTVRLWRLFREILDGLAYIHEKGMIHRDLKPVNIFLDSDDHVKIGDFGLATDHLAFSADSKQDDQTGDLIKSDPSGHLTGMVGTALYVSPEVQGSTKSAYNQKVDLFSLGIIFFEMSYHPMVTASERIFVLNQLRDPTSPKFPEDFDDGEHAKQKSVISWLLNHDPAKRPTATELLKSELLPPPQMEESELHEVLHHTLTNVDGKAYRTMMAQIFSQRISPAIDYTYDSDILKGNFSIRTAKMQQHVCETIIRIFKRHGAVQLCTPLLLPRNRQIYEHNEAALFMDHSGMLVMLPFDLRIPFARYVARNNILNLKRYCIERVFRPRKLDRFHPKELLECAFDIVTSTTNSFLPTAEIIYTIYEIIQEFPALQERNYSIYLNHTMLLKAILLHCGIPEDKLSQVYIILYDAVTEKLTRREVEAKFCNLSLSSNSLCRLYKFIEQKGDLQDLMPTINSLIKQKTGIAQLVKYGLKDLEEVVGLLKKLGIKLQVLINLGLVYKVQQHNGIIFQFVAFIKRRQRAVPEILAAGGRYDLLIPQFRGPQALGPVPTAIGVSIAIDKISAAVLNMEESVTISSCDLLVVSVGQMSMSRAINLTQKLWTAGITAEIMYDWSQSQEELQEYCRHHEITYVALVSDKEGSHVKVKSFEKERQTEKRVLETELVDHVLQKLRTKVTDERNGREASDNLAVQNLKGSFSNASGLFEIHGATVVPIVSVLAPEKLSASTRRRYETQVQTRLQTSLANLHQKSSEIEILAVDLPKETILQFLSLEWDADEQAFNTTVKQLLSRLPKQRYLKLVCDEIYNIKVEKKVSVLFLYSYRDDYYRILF
pIC50: −log10 of the molar value.
measure: pIC50

Lookup result for Cc1[nH]ncc1C1CCCN(c2ccnc(-c3cnc4cnc(C(F)(F)F)cn34)n2)C1 (stereo not drawn) [IV-452] ; measured pIC50: 5.30 to 6.30

Lookup result for CS(=O)(=O)N1CCC2CCN(c3ccnc(-c4cnc5cnc(C(F)F)cn45)n3)CC21 (stereo not drawn) [IV-144] ; measured pIC50: 5.30 to 6.30

Lookup result for FC(F)(F)c1cn2c(-c3nccc(N4CC(c5cn[nH]c5)NC(C(F)(F)F)C4)n3)cnc2cn1 (stereo not drawn) [IV-558] ; measured pIC50: < 5.30

Numbers sourced from patent US10988477B2.
